// growth lookup, one value per entry
- Test system: HCC-2998 colon
- METHOD_NOTES: NCI-60 one-dose screen, 48 h (100 = growth as untreated, 0 = no growth, -100 = all killed)
- RECORDED_CONDITIONS: 10 µM unless noted
Compounds without any hit were thinned out: in the full panel of roughly 83,000, 20% have a hit.
Write it as a number; the unit % goes unstated.

Examples from the recorded data:
- MOLECULE: "COc1cc2c(c(OC)c1OC)C(=O)CC(c1cccc(NC(=O)c3cccc(NC(=O)[C@H](C)NC(=O)OC(C)(C)C)c3)c1)O2 (some centres undefined)"
  PROPERTY: "growth"
  READING: 105
- MOLECULE: "CCCCSc1nc(NCCc2c[nH]c3ccccc23)c(C#N)c(-c2ccccc2)n1"
  PROPERTY: "growth"
  READING: 16.3
- MOLECULE: "CCCCCCCCc1ccc(S(=O)(=O)Nc2ccc(CC)cc2C(=O)O)cc1"
  PROPERTY: "growth"
  READING: 113
- MOLECULE: "C#CCOc1ccc(/C=N/Nc2nc(-c3ccc(Cl)cc3)cs2)cc1OC"
  PROPERTY: "growth"
  READING: 90.3
- MOLECULE: "CCOC(=O)C(N=Nc1ccc(S(=O)(=O)N=C(N)N)cc1)C(C)=O (centres undefined)"
  PROPERTY: "growth"
  READING: 120
- MOLECULE: "CC(=O)Oc1ccccc1C(=O)[Se]C(=NC1CCCCC1)NC1CCCCC1"
  PROPERTY: "growth"
  READING: -92.6
- MOLECULE: "COc1ccc(C(=O)/C=C/c2c(F)cccc2Cl)cc1S(N)(=O)=O"
  PROPERTY: "growth"
  READING: -46.2
- MOLECULE: "Cc1ccc(C2=NN(c3nc(-c4cc5ccccc5oc4=O)cs3)C(c3ccc(C)cc3)C2)cc1 (centres undefined)"
  PROPERTY: "growth"
  READING: 118
- MOLECULE: "CCCCn1c(O)c(N=Nc2nc(-c3cc4ccccc4oc3=O)cs2)c2cc(Br)ccc21"
  PROPERTY: "growth"
  READING: 111
- MOLECULE: "COc1ccc(C(=O)/C=C/c2ccc(OC)c(OCc3ccccc3)c2)cc1OC"
  PROPERTY: "growth"
  READING: 12.6

Data request, read-out growth, for `COc1ccc2nc(Nc3cccc(NC(=O)c4ccc(CN5CCCN(C)CC5)c(C(F)(F)F)c4)c3)ccc2c1`
-62.6

Data request, read-out growth, for `CCC(C)(C)c1ccc(OCCCCN2CCN(c3ccncc3)CC2)cc1`
-5.55
